Origin of values: ChEMBL document CHEMBL1126381

Measured pIC50 values are reported for all entries that follow.
target.under.test: Glutamate receptor ionotropic, NMDA 1 (Rattus norvegicus, UniProt P35439)
assay.protocol: Inhibition of [3H]L-689,560 binding to Glycine site of NMDA receptor of rat cortical membranes
As a rule, pIC50 stands for the negative log10 of the concentration, concentration in M.

State the measured pIC50 (Glutamate receptor ionotropic, NMDA 1 (Rattus norvegicus, UniProt P35439)) of O=C(O)c1[nH]c2cc(Cl)ccc2c1CO 5.05

State the measured pIC50 (Glutamate receptor ionotropic, NMDA 1 (Rattus norvegicus, UniProt P35439)) of Nc1ccc(CNC(=O)CCc2c(C(=O)O)[nH]c3cc(Cl)cc(Cl)c23)cc1 7.57

State the measured pIC50 (Glutamate receptor ionotropic, NMDA 1 (Rattus norvegicus, UniProt P35439)) of O=C(CCc1c(C(=O)O)[nH]c2cc(Cl)cc(Cl)c12)Nc1ccccc1 7.44

State the measured pIC50 (Glutamate receptor ionotropic, NMDA 1 (Rattus norvegicus, UniProt P35439)) of O=C(O)CCc1c(C(=O)O)[nH]c2cc(Cl)cc(Cl)c12 7.15

Alright, here's another compound for you.
State the measured pIC50 (Glutamate receptor ionotropic, NMDA 1 (Rattus norvegicus, UniProt P35439)) of NC(=O)c1c(C(=O)O)[nH]c2cc(Cl)ccc12 6.09
